Tested on: Malme-3M
Assay: NCI tumour cell line growth inhibition, 48 h
Calls of active or inactive are those of the source. No stated cut-off is given here; in the data, active = GI50 up to about 1.1 µM and inactive = higher.
REPORTED ENDPOINT: GI50

Prompt: Which value of GI50 has been reported for `O=C1c2cscc2C(=O)c2c(OCc3ccccc3)ccc(OCc3ccccc3)c21` in the records?
Completion: > 100 µM (inactive)

Prompt: Which value of GI50 has been reported for `CCc1cccc(=O)c([O-])c1.CCc1cccc(=O)c([O-])c1.[Bi+3].[Cl-]` in the records?
Completion: 1.79 µM (inactive)

Prompt: Which value of GI50 has been reported for `O=C1C=Cc2cscc21` in the records?
Completion: 27 µM (inactive)

Prompt: Which value of GI50 has been reported for `CCOC(=O)/C(C#N)=C(N)/C(=N\Nc1cccc(C(F)(F)F)c1)C(=O)OCC` in the records?
Completion: > 100 µM (inactive)

Prompt: Which value of GI50 has been reported for `O=C(NNCc1ccco1)c1cc2ccccc2[nH]1` in the records?
Completion: > 100 µM (inactive)

Prompt: Which value of GI50 has been reported for COc1ccc(N2C(=O)C3ON(C(C(N)=O)c4ccccc4)C(c4cc5ccccc5c5ccccc45)C3C2=O)cc1 (stereo unspecified) in the records?
Completion: > 50 µM (inactive)

----------
Hi there, I'd appreciate the recorded GI50 for every entry that follows.
Tested on: NCI-H226
Test: NCI tumour cell line growth inhibition, 48 h
Calls of active or inactive are those of the source. No stated cut-off is given here; in the data, active = GI50 up to about 1.1 µM and inactive = higher.

Prompt: Which value of GI50 has been reported for `COC(=N)c1ncn(Cc2ccccc2)c1N` in the records?
Completion: > 100 µM (inactive)

Prompt: Which value of GI50 has been reported for `Cc1c(C)c2c(c(N)c1C#N)C(=O)N(Cc1ccc(S(N)(=O)=O)cc1)C2=O` in the records?
Completion: > 30.5 µM (inactive)

Prompt: Which value of GI50 has been reported for Oc1ccc(CCc2cc(O)cc(O)c2)cc1 [DIHYDRORESVERATROL] in the records?
Completion: 53.5 µM (inactive)

Prompt: Which value of GI50 has been reported for `Cc1ccc2nc(N/N=C/c3ccc(C)s3)cc(C)c2c1` in the records?
Completion: 10.1 µM (inactive)

Prompt: Which value of GI50 has been reported for O=C(O)CCC1(c2ccccc2)NC(=O)NC1=O (configuration not stated) in the records?
Completion: > 100 µM (inactive)

Prompt: Which value of GI50 has been reported for O=C(O)C1[C@@H](C(=O)O)C1(Br)CBr (some centres not stated) in the records?
Completion: > 100 µM (inactive)

Prompt: Which value of GI50 has been reported for C=C(Cl)C(Cl)(CBr)CCC(Cl)C(C)C (configuration not stated) in the records?
Completion: 30 µM (inactive)

Prompt: Which value of GI50 has been reported for `COc1cc([N+](=O)[O-])c(OC)c2c(Nc3ccc(S(=O)(=O)O)c4cc(S(=O)(=O)O)cc(S(=O)(=O)O)c34)cc(C)nc12` in the records?
Completion: > 100 µM (inactive)

Prompt: Which value of GI50 has been reported for C/C=C/c1cc(=O)c([C@@H]2OC(=O)c3cc(OC)cc(OC)c32)co1 [VERMISTATIN] in the records?
Completion: 60.4 µM (inactive)

Prompt: Which value of GI50 has been reported for `COc1c(O)cc2ccnc3c2c1N(C)C=C3` in the records?
Completion: > 100 µM (inactive)

Prompt: Which value of GI50 has been reported for `CSc1nc(-c2cc3c(c(SC)n2)CCCCC3)cc2c1CCCCC2` in the records?
Completion: > 100 µM (inactive)

Prompt: Which value of GI50 has been reported for COc1ccc2c3c1OC1C(OC)(OC)C=C[C@@]4(Br)[C@@H](C2)N(CC2CC2)CC[C@]314 (some centres not stated) in the records?
Completion: 58.5 µM (inactive)

Prompt: Which value of GI50 has been reported for C=CCNC(=O)C(C)C1CCC2(C)C=CC(=O)C(C)=C2C1O (configuration not stated) in the records?
Completion: > 100 µM (inactive)

Prompt: Which value of GI50 has been reported for CC(=O)CC1(CBr)Nc2ccc([N+](=O)[O-])cc2NC1=O (configuration not stated) in the records?
Completion: > 100 µM (inactive)

Prompt: Which value of GI50 has been reported for `CC(=O)CC(=O)Nc1ccc(OS(N)(=O)=O)cc1` in the records?
Completion: > 100 µM (inactive)

Prompt: Which value of GI50 has been reported for COC1(OC)CCC2(C)OC(c3ccccc3)C1O2 (configuration not stated) in the records?
Completion: > 100 µM (inactive)

Prompt: Which value of GI50 has been reported for CC(=O)C(CN(C(C)C)C(C)C)C(c1ccccc1)c1c(O)c2ccccc2oc1=O (configuration not stated) in the records?
Completion: > 100 µM (inactive)

Prompt: Which value of GI50 has been reported for `O=C1C=C(Nc2ccccc2C(=O)CC(=O)C(=O)Nc2cccc(C(F)(F)F)c2)c2ccccc2C1=O` in the records?
Completion: 61.5 µM (inactive)

Prompt: Which value of GI50 has been reported for COc1ccc(N2C(=O)C3ON(C(C(N)=O)c4ccccc4)C(c4cc5ccccc5c5ccccc45)C3C2=O)cc1 (configuration not stated) in the records?
Completion: 26.3 µM (inactive)

Prompt: Which value of GI50 has been reported for `CNC(=O)OCc1nccc2c(C)c3[nH]c4ccc(OC)cc4c3cc12` in the records?
Completion: 1.73 µM (inactive)

Prompt: Which value of GI50 has been reported for CCOC(=O)C1=C(C)NC(=S)NC1c1ccccc1 (configuration not stated) in the records?
Completion: > 100 µM (inactive)

Prompt: Which value of GI50 has been reported for `O=[N+]([O-])c1ccc(Cl)c(/C=N/C23CC4CC(CC(C4)C2)C3)c1` in the records?
Completion: > 10 µM (inactive)
